These measurements were taken from paper PMC7527709.

Study target: Kv1.3 (Homo sapiens)
Sequence (P22001 whole entry): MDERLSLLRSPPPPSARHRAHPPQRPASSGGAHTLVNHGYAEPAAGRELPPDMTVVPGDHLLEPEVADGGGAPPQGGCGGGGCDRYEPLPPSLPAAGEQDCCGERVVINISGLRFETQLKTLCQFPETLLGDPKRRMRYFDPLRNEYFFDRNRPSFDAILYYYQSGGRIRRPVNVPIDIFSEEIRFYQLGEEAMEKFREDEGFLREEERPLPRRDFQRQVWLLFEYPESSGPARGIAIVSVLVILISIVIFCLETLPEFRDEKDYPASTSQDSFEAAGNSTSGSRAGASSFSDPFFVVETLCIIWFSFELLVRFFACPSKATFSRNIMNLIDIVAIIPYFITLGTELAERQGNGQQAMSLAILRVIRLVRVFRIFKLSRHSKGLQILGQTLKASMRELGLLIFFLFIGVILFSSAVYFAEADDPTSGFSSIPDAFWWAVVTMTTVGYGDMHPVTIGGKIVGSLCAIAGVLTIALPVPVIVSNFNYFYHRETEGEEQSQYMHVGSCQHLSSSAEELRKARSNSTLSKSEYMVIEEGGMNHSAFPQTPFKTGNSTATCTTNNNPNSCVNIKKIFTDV
Experiment: whole-cell patch clamp, Kv1.[…] stably expressed in CHO cells
Experimental readout: EC50
Hey, just the number and the unit after it is fine.

Using the record for COCCOCCOCCOCCOCCOCCOc1ccc(OCCCCOc2c3ccoc3cc3oc(=O)ccc23)cc1 , state its measured EC50.
0.35 µM
